Reference source for all entries: patent US9023821B2

Tested on: human airway epithelial cells (HAECs)
Assay: Agilent miRNA chips, miRNA expression at four stages of differentiation of HAECs
Conditions: stage FC; Table VI
METRIC: Level of intensity of expression in log2 measured with the Agilent chips, FC (log2)

{"SUBSTANCE": "hsa-miR-365: human miRNA, SEQ ID No. 41 (UAAUGCCCCUAAAAAUCCUUAU; expressed or natural sequence; listed as Homo sapiens)", "UNIT_DESCRIPTOR": "log2", "MEASURED": 7.21}
{"SUBSTANCE": "hsa-miR-374a: human miRNA, SEQ ID No. 42 (UUAUAAUACAACCUGAUAAGUG; expressed or natural sequence; listed as Homo sapiens)", "UNIT_DESCRIPTOR": "log2", "MEASURED": 7.91}
{"SUBSTANCE": "hsa-miR-15a: human miRNA, SEQ ID No. 9 (UAGCAGCACAUAAUGGUUUGUG; expressed or natural sequence; listed as Homo sapiens)", "UNIT_DESCRIPTOR": "log2", "MEASURED": 9.71}
